# experimental.system: GPR35 (Homo sapiens, UniProt Q9HC97)
# Sequence (Q9HC97 whole entry): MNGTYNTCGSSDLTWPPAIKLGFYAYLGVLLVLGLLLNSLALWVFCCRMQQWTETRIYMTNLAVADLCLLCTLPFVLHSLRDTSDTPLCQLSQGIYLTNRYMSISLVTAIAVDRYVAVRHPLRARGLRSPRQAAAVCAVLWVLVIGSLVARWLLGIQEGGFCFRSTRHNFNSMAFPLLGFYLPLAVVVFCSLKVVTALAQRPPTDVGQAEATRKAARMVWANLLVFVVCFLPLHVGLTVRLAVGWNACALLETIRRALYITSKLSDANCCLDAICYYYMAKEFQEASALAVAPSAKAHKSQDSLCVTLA
# assay.remarks: dCyFIRscreen profiling and titrations in yeast GPCR-Gα reporter strains
# test.context: titration, yeast GPCR-Gα reporter strain
measured.attribute: pEC50
# log scale: pEC50 equals minus log10 of the concentration in mol/L

Exercise: Query (compound): `O=C(O)c1cc(=O)c2ccccc2[nH]1` ; field requested: pEC50
Key: 3.10

###

# experimental.system: HCAR3 (Homo sapiens)
# Sequence (P49019 whole entry): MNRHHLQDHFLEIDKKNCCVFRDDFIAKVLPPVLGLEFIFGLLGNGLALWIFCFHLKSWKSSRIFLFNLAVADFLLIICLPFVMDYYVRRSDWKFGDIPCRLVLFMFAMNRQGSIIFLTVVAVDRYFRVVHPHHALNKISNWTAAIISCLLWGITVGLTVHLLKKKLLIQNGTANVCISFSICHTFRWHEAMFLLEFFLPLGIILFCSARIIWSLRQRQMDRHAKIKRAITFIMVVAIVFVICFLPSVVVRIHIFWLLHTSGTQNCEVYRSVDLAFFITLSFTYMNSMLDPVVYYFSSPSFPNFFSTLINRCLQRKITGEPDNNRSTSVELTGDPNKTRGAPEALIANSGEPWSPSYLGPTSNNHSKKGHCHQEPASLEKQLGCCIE
# assay.remarks: dCyFIRscreen profiling and titrations in yeast GPCR-Gα reporter strains
# Format: cell-based
# Set-up: expressed in transfected cells
# test.context: titration, yeast GPCR-Gα reporter strain, this study
measured.attribute: EC50 (µM)
Kindly answer with a numeric value in µM, unit omitted.

Exercise: Query (compound): O=C(O)c1cc(=O)c2ccccc2[nH]1 [KYNA, kynurenic acid] ; field requested: EC50
Key: 41

Exercise: Next: CCCCCC(O)CC(=O)O (centres unmarked) [3-hydroxyoctanoic acid]
Key: 24
